All values here come from PubChem BioAssay (NCI).

test: NCI Yeast Anticancer Drug Screen. Data for the rad50 strain (AID 155);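 note: 0% = growth of vehicle-only cultures of the same strain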; details: S. cerevisiae rad50 strain growth inhibition; at 5.0 µM (retest, dose inferred, filed as 0.5)
The panel holds about 79,000 compounds, 15% with a hit somewhere; the sample as a whole holds those more often. The source made the active and inactive calls. Cut-off read from the data, not from the text of the source: active = growth inhibition above about 70%; inactive = the rest.
Outcome codes: active, inactive

>  <Compound>
C[C@@H]1C[C@H]2CC[C@H](O2)[C@H](C)C(=O)O[C@@H](C)C[C@@H]2CC[C@@H](O2)[C@@H](C)C(=O)O[C@H](C)C[C@H]2CC[C@H](O2)[C@H](C)C(=O)O[C@@H](C)C[C@@H]2CC[C@@H](O2)[C@@H](C)C(=O)O1

>  <Class>
inactive

$$$$
>  <Compound>
COC(=O)[C@]1(C)CCC[C@]2(C)[C@H]3CC4OO[C@@]3(CC[C@H]21)[C@H]1O[C@@]41C(C)C

>  <Class>
active

$$$$
>  <Compound>
CCN1CCC(O)(c2ccc(Cl)cc2)C(C(=O)c2ccc(Cl)cc2)C1 (configuration not stated)

>  <Class>
inactive

$$$$
>  <Compound>
C[SH+]c1ccccc1N=Cc1ccccn1.C[SH+]c1ccccc1N=Cc1ccccn1.[Ni+2].[O-][Cl+3]([O-])([O-])[O-]

>  <Class>
inactive

$$$$
>  <Compound>
O=P(c1ccccc1)(c1ccccc1)c1ccccc1.[Cl][Sn]([c]1ccccc1)([c]1ccccc1)[c]1ccccc1

>  <Class>
active

$$$$
>  <Compound>
N=C(N)c1ccc(NN=Nc2cccc3c2Oc2ccccc2O3)cc1

>  <Class>
inactive

$$$$
>  <Compound>
CO[C@@]12[C@@H]3N[C@@H]3CN1C1=C(C(=O)C(N(C)c3ccc(O)cc3)=C(C)C1=O)[C@@H]2COC(N)=O

>  <Class>
inactive

$$$$

---

Quick reference: growth inhibition of the listed items.
assay: NCI Yeast Anticancer Drug Screen. Data for the rad50 strain (AID 155);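 note: 0% = growth of vehicle-only cultures of the same strain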; conditions: S. cerevisiae rad50 strain growth inhibition; at 50.0 µM (retest, dose inferred, filed as 5.0); hits give high values
Compounds without any hit were thinned out: in the full panel of roughly 79,000, 15% have a hit.

>  <Compound>
Clc1ccc(Cl)c(Cl)c1

>  <growth inhibition / %>
99

$$$$
>  <Compound>
CC1=C(O)C(=O)C=C2C1=CC=C1[C@@]2(C)CC[C@@]2(C)[C@@H]3C[C@](C)(C(=O)O)CC[C@]3(C)CC[C@]12C

>  <growth inhibition / %>
96

$$$$
>  <Compound>
CCCCCc1cc(OC(=O)CCCN(CC)CC)c2c(c1)OC(C)(C)[C@@H]1CCC(C)=C[C@@H]21

>  <growth inhibition / %>
97

$$$$
>  <Compound>
CCOP(=O)(N=Nc1cccnc1)OCC

>  <growth inhibition / %>
-17

$$$$
>  <Compound>
C[n+]1c(/C=C/c2ccc(O)c3ccccc23)[se]c2ccccc21

>  <growth inhibition / %>
78

$$$$
>  <Compound>
C/C=C(\C)C(=O)OC1CC(C)(C)CC2C3=CCC4C5(C)CCC(=O)C(C)(C)C5CCC4(C)C3(C)CCC12C(=O)O (stereo unspecified) (tested in a mixture with another compound)

>  <growth inhibition / %>
78

$$$$
>  <Compound>
CCN(CC)CC(=O)c1cc2ccccc2c2ccccc12

>  <growth inhibition / %>
97

$$$$
>  <Compound>
O=[N+]([O-])c1ccc([N+](=O)[O-])c2nsnc12

>  <growth inhibition / %>
97

$$$$
>  <Compound>
C[AsH](C)CC[AsH](C)C.C[AsH](C)CC[AsH](C)C.C[AsH](C)CC[AsH](C)C.[Ni]

>  <growth inhibition / %>
98

$$$$
>  <Compound>
O=[N+]([O-])/C=C/c1ccc(Cl)cc1

>  <growth inhibition / %>
99

$$$$
>  <Compound>
CCCC(C)c1ccccc1OP(=S)(S)Oc1ccccc1C(C)CCC (stereo unspecified)

>  <growth inhibition / %>
-3

$$$$
>  <Compound>
O=[N+]([O-])O.[In]

>  <growth inhibition / %>
49

$$$$
>  <Compound>
O=C(Nc1n[c]([Hg][Cl])[c]([Hg][Cl])s1)OCc1ccccc1

>  <growth inhibition / %>
98

$$$$
>  <Compound>
COCCOCCOC(=O)CBr

>  <growth inhibition / %>
96

$$$$
>  <Compound>
CCOP(=O)(OCC)/C(C#N)=C/c1cccc(F)c1

>  <growth inhibition / %>
45

$$$$
>  <Compound>
[Hg][c]1ccccc1

>  <growth inhibition / %>
94

$$$$
>  <Compound>
C[N+](C)(C)CC1CCCc2ccccc2C1=O (stereo unspecified)

>  <growth inhibition / %>
90

$$$$
>  <Compound>
CC(=O)OCC12CC(O)C(C)=CC1OC1C(O)C(OC(C)=O)C2(C)C12CO2 (stereo unspecified)

>  <growth inhibition / %>
33

$$$$
>  <Compound>
CC[C@@H](C)[C@@H]1NC(=O)C(NC(=O)C(CC(C)C)N(C)C(=O)C2CCCN2C(=O)C(C)O)C(C)OC(=O)C(Cc2ccc(OC)cc2)N(C)C(=O)C2CCCN2C(=O)C(CC(C)C)NC(=O)C(C)C(=O)C(C(C)C)OC(=O)C[C@H]1O (stereo partly specified)

>  <growth inhibition / %>
96

$$$$
>  <Compound>
C1CN1[PH+](N1CC1)N1CC1.C1CN1[PH+](N1CC1)N1CC1.[I][Pt][I]

>  <growth inhibition / %>
20

$$$$
>  <Compound>
COC1=C(Cl)C(=O)c2ccccc2C1=O

>  <growth inhibition / %>
98

$$$$

---

experiment: NCI Yeast Anticancer Drug Screen. Data for the cln2 rad14 strain (AID 165);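 note: 0% = growth equal to vehicle treated cultures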; details: S. cerevisiae cln2 rad14 strain, at 50.0 µM
This is part of a sample that, as a whole, favours compounds with a hit. Of some 79,000 tested, about 15% had one in any assay. Active and inactive are the calls of the source. No stated cut-off is given here; in the data, active means growth inhibition above about 70%; inactive means the rest.
Labels: active, inactive

>  <Compound>
ClCCOCOCCCl

>  <Class>
inactive

$$$$
>  <Compound>
CCOc1ccc(N)cc1

>  <Class>
inactive

$$$$
>  <Compound>
CC(=O)N[C@@H](C[S-])C(=O)O.O=[N+]([O-])O.[Ag+]

>  <Class>
inactive

$$$$
>  <Compound>
COC1OC(CO)C(O)C(O)[CH]1[Hg][Cl] (configuration not stated)

>  <Class>
active

$$$$
>  <Compound>
O=[N+]([O-])c1ccc2c(c1)Oc1cccnc1[Se]2

>  <Class>
inactive

$$$$
>  <Compound>
Cc1sc2cccc[n+]2c1C

>  <Class>
inactive

$$$$
>  <Compound>
CN(C)c1ccc(C2N(Cc3ccc(N(CCCl)CCCl)cc3)CCCN2Cc2ccc(N(CCCl)CCCl)cc2)cc1

>  <Class>
inactive

$$$$

---

assay: NCI Yeast Anticancer Drug Screen. Data for the cln2 rad14 strain (AID 165);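 note: 0% = growth equal to vehicle treated cultures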; settings: S. cerevisiae cln2 rad14 strain, at 50.0 µM (retest, dose inferred, filed as 5.0)
About 79,000 compounds went through this panel and 15% of them were active in at least one assay; those are over-represented in the sample as a whole. Active and inactive are the calls of the source. Rule as the data show it: active = growth inhibition above about 70%; inactive = the rest.
Possible outcomes: active, inactive

>  <Molecule>
CC(=O)[O-].CC(=O)[O-].O=C(N/N=C/c1cc(Cl)cc(Cl)c1[OH2+])c1ccncc1.[Zn+2]

>  <Class>
inactive

$$$$
>  <Molecule>
O=C(CBr)OCC(O)CCl (stereo not given)

>  <Class>
active

$$$$
>  <Molecule>
CC(Cl)CN1COc2c3c(c4ccccc4c2C1)CN(CC(C)Cl)CO3 (stereo not given)

>  <Class>
active

$$$$
>  <Molecule>
O=[N+]([O-])c1cccc([N+](=O)[O-])c1Cl

>  <Class>
inactive

$$$$
>  <Molecule>
CC[C@@H]1C(=O)OC[C@@H]1Cc1cncn1C

>  <Class>
inactive

$$$$
>  <Molecule>
C[N+](C)(C)CC1Cc2ccccc2C1=O (stereo not given)

>  <Class>
active

$$$$
>  <Molecule>
CC(=O)C(CN(CC(C)C)CC(C)C)C(c1ccccc1)c1c(O)c2ccccc2oc1=O (stereo not given)

>  <Class>
inactive

$$$$
>  <Molecule>
Cc1ccc2c(-c3ccccc3)c3ccccc3[s+]c2c1

>  <Class>
active

$$$$
>  <Molecule>
CN(C=O)C(=S)[S][Sb]([S]C(=S)N(C)C=O)[S]c1nc2ccc(N=Nc3ccc(NS(=O)(=O)c4ccc(NC(=O)C(N5CC5)(N5CC5)N5CC5)cc4)cc3)cc2s1

>  <Class>
inactive

$$$$
>  <Molecule>
[Cl][Sn]([Cl])([c]1ccccc1)[c]1ccccc1.c1ccc2nc(-c3ccc4ccccc4n3)ccc2c1

>  <Class>
active

$$$$
